- system: Bacteroids fragilis O-GlcNAcase (Bacteroides fragilis)
- Sequence (Q5L8V6 entry or part of it): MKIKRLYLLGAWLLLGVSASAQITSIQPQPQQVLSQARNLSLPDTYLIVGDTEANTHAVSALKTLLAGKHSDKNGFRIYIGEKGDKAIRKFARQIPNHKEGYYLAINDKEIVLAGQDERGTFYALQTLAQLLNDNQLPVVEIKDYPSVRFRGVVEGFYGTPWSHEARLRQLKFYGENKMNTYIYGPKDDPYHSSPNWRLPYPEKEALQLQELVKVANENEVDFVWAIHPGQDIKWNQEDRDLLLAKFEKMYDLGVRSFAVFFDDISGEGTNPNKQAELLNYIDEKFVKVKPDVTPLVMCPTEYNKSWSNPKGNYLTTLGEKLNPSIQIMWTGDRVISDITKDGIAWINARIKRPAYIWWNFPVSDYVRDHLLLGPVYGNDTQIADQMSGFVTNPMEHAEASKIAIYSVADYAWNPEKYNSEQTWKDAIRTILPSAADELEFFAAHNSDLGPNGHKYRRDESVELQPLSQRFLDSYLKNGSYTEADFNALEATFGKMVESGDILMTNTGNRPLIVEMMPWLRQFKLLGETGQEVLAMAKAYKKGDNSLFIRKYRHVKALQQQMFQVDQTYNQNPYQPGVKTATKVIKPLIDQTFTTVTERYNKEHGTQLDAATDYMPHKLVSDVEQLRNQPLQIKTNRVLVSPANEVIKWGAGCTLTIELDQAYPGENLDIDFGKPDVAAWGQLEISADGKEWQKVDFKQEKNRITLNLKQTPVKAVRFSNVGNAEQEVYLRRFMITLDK
Ki strictly under 100 µM means yes; at 100 µM or over means no.

molecule: COc1ccc(CN(CCCCCCCN2CC(NC(C)=O)C(O)C(O)C2CO)Cc2ccc(OC)cc2)cc1 (centres unmarked)
system: Bacteroids fragilis O-GlcNAcase (Bacteroides fragilis)
qualitative label: no

Now turn to the next molecule.
## Task Dear colleague, could you confirm whether Ki of CC(=O)NC1CN(CCCCCCCNC(=O)CCCCC2SCC3NC(=O)NC32)C(CO)C(O)C1O (centres unmarked) falls below 100 µM? Thanks.
## Result yes

====

UniProtKB Q5L8V6: reported pKi for various compounds.
Numbers only, as −log10 of the molar value.

// worked examples, pKi included
compound: COc1ccc(CNCCCCCCCN2CC(NC(C)=O)C(O)C(O)C2CO)cc1 (stereo not drawn) [Compound 2]
test result: 4.14
--
compound: CC(=O)NC1CN(CCCCCCCN)C(CO)C(O)C1O (stereo not drawn) [Compound 1]
test result: 4.12

Consider the additional compound presented here.
## Task Quick one: pKi of CC(=O)NC1CN(CCCCCCCN=[N+]=[N-])C(CO)C(O)C1O (stereo not drawn) [Compound 4] ?
## Result 4.02

All values here come from patent US8466291B2.
